Taken from patent US20260125382A1.

Biological target: CDK9 (Homo sapiens, UniProt P50750)
Construct: endogenous in cells; host or cells: MDA-MB-231
Sequence (P50750 whole entry): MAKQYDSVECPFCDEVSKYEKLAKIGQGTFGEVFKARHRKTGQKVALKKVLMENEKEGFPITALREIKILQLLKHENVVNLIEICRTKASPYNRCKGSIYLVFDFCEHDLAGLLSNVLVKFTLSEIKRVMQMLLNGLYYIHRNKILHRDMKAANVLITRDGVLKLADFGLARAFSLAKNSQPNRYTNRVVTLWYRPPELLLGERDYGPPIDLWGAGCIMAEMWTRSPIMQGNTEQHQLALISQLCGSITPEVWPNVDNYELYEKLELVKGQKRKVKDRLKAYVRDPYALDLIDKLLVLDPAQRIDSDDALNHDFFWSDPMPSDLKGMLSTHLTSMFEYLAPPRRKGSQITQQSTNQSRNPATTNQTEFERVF
Test: CDK protein degradation activity (Western blotting), CDK9
Assay type: cell-based
Conditions: MDA-MB-231 cells, 1 μM, 16 hours, Western blot
Description: In order to evaluate the CDK protein degradation activity of the compounds according to the present invention, the following experiment was conducted. MDA-MB-231 cells were seeded at 5×10^5 cells per well in a 6-well plate. The next day, the compounds were treated in each well to achieve final concentrations of 100 nM, 1 μM, and 10 μM. […] Cell lysates were quantified and separated by size using sodium dodecyl sulfate-polyacrylamide gel electrophoresis (SDS-PAGE). […]
MEASURED_QUANTITY: Enzyme degradation CDK9 (% remaining) @ 1 μM (%)
Express the result in % but write the number alone.

Observe how each entry below is paired with its result.
{"COMPOUND": "O=C1CC[C@@H](c2ccc(OCC(=O)N3CCC(OCCN4CCN(c5ccc(Nc6ncnc7c6ncn7C6CC(NC(=O)Cc7ccccc7)C6)cc5)CC4)CC3)cc2)C(=O)N1 (stereo partly shown) [Compound 250]", "ASSAYED_SYSTEM": "CDK9 (Homo sapiens, UniProt P50750)", "UNIT_SPEC": "%", "ENDPOINT_VALUE": 10}
{"COMPOUND": "O=C1CC[C@H](N2C(=O)C=C(Nc3cccc(CC(=O)N4CCC(CN5CCN(c6ccc(Nc7ncnc8c7ncn8C7CC(NC(=O)Cc8ccccc8)C7)cc6)CC5)CC4)c3)C2=O)C(=O)N1 (stereo partly shown) [Compound 188]", "ASSAYED_SYSTEM": "CDK9 (Homo sapiens, UniProt P50750)", "UNIT_SPEC": "%", "ENDPOINT_VALUE": 20}

Give recorded Enzyme degradation CDK9 (% remaining) @ 1 μM with CDK9 (Homo sapiens, UniProt P50750) for the following compound: O=C1CC[C@H](N2C(=O)C=C(N3CCC(C(=O)N4CCC(CC(=O)N5CCN(c6ccc(Nc7ncnc8c7ncn8[C@H]7C[C@@H](NC(=O)Cc8ccccc8)C7)cc6)CC5)CC4)CC3)C2=O)C(=O)N1 [Compound 197]
10

Query for CDK9 (Homo sapiens, UniProt P50750): what Enzyme degradation CDK9 (% remaining) @ 1 μM does the record show for O=C1CC[C@H](N2C(=O)C=C(N3CCC(C(=O)N4CCC5(CC4)CC(N4CCN(c6ccc(Nc7ncnc8c7ncn8C7CC(NC(=O)Cc8ccccc8)C7)cc6)CC4)C5)CC3)C2=O)C(=O)N1 (stereo partly shown) [Compound 193] ?
10

* * *

Each entry below carries its reported Enzyme degradation CDK9 (% remaining) @ 0.1 μM.
Target: CDK9 (Homo sapiens, UniProt P50750)
Construct: endogenous in cells; host or cells: MDA-MB-231
Test: CDK protein degradation activity (Western blotting), CDK9
Assay type: cell-based
Conditions: MDA-MB-231 cells, 0.1 μM, 16 hours, Western blot
Express your answer in %, writing the number without its unit.

{"MOLECULE": "O=C1CC[C@H](N2C(=O)c3cccc(N4CCC(CN5CCC(CNc6ncnc7c6ncn7C6CC(NC(=O)c7c(Cl)cccc7Cl)C6)CC5)CC4)c3C2=O)C(=O)N1 (stereo partly drawn)", "ENDPOINT_VALUE": 50}

Here is the next item to consider.
May I ask what Enzyme degradation CDK9 (% remaining) @ 0.1 μM has been recorded for O=C1CC[C@H](N2C(=O)c3cccc(N4CCC5(CC4)CC(N4CCN(c6ccc(Nc7ncnc8c7ncn8[C@H]7C[C@@H](NC(=O)Cc8ccccc8)C7)cc6)CC4)C5)c3C2=O)C(=O)N1 ?
30
